Data origin, for the record: patent US20180057604A1

target.under.test: T1, human TfR extracellular domain with N-terminal His tag (human, UniProt P02786 89-760)
T1 construct: Biotinylated in some assays; also called huTfR; HuTfR
measurement.notes: SPR, TfR captured by anti-His, Fab injected;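 note: single cycle kinetics with a Fab dilution series, fitted by a one-to-one Langmuir model or a steady state model, KD taken as koff over kon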
Consider the following binders and their measured pKd readings.
Field pKd (float): negative decimal logarithm of the concentration in molar.

{"binder": "Hu7A4.v12.Fab (Fab, V domains shown, Fab) VH: EVQLVQSGAEVKKPGASVKVSCKGSGYTFTDYAMHWVRQAPGQGLEWMGGISTYFGRTNYNQKFKGRVTMTVDTSISTAYMELSRLRSDDTAVYYCARGLSGNYVMDYWGQGTTVTVSS VL: DIVMTQSPDSLAVSLGERATINCRASESVDSYGNSFMHWYQQKPGQPPKLLIYRASNLESGVPDRFSGSGSRTDFTLTISSLQAEDVAVYYCQQSNEGPPTFGQGTKLEIK", "pKd": 9.59}

Query :: Can you share its pKd? I mean this binder: Hu15G11.v3.Fab (Fab, V domains shown, Fab) VH: EVQLVQSGAEVKKPGASVKVSCKASGYTFTSYWMHWVRQAPGQRLEWMGEINPTNGRTNYIEKFKSRVTITRDTSASTAYMELSSLRSEDTAVYYCARGTRAYHYWGQGTMVTVSS VL: DIQMTQSPSSLSASVGDRVTITCRASDNLYSNLAWYQQKPGKSPKLLVYDATNLADGVPSRFSGSGSGTDYTLTISSLQPEDFATYYCQHFWGTPLTFGQGTKVEIK
Result :: 8.14

Query :: Same lookup for Hu7A4.v9.Fab (Fab, V domains shown, Fab) VH: EVQLVQSGAEVKKPGASVKVSCKASGYTFTDYAMHWVRQAPGQGLEWMGGISTYFGRTNYNQKFKGRVTMTRDTSISTAYMELSRLRSDDTAVYYCARGLSGNYVMDYWGQGTTVTVSS VL: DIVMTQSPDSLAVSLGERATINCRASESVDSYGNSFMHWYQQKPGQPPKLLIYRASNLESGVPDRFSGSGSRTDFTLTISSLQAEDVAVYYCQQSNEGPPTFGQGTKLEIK , please.
Result :: 9.40
